- SUBJECT_OF_TEST: cAMP-dependent protein kinase catalytic subunit alpha (Homo sapiens) (UniProt P17612)
- TEST_DESCRIPTION: Protein Kinase A (PKA-HiBiT) SDR gain of signal screen
- ASSAY_SETUP: PKA-HiBiT structural dynamics response (SDR), luminescence gain of signal; series mostly up to 32.9 µM
Inconclusive results are not listed. Active and inactive are the calls of the source. Calls come from the whole dose curve.
Entry note: the call must match one of Y = active, N = inactive

Qu. For C=CC(=O)N1CCC[C@@H](n2nc(-c3cccc(C(=O)Nc4ccc(C(C)C)c(C)c4)c3)c3c(N)ncnc32)C1 , which call appears in the assay record?
Ans. N

Qu. Answer briefly: the call reported for Cc1[nH]c2ccccc2c1C1=C(NCCc2ccc(F)cc2)C(=O)N(C)C1=O in this assay.
Ans. N

Qu. Hi, sorry to bother you, what did the test record for Cc1ccc(C(=O)Nc2ccc(Oc3cc4cnn(C)c4cc3-c3cn[nH]c3)c(F)c2)c(=O)n1-c1ccc(F)cc1 ?
Ans. N

Qu. GET /call?item= O=C(O)C1(Cc2cccc(Nc3nccs3)n2)CCC(Oc2cccc(Cl)c2F)CC1 (stereo not given) returns the recorded outcome of this test.
Ans. Y

Qu. Which result was noted for this molecule in the test: COc1cc2c(cc1OC)-c1[nH]nc(Nc3cccc(F)c3)c1C2
Ans. N

Qu. Entry COc1cc2c(Oc3ccc4[nH]c(C)cc4c3F)ncnc2cc1OCCCN1CCCC1 : call = ?
Ans. N

Qu. Assay result, entry CNC(=O)c1ccccc1Sc1ccc2c(/C=C/c3ccccn3)n[nH]c2c1 — outcome?
Ans. N

Qu. What was the test verdict on Cc1cc(F)ccc1-c1nc(NCCN=C(N)NC#N)nc2c1ccc(=O)n2-c1c(F)cccc1F ?
Ans. N

Qu. Check the results log: what was the call for O=C1C(c2c(O)[nH]c3ccccc23)=Nc2ccccc21 ?
Ans. N

Qu. # fetch the recorded call for CC(C)(NS(=O)(=O)c1ccc2c(Cl)cnc(N=C(N)N)c2c1)C(=O)O here
Ans. N

Qu. Record request — test call for COc1cc(N2CCN(C)CC2)ccc1Nc1nc(N)c(C(=O)c2c(Cl)cccc2Cl)s1
Ans. N

Qu. In this assay, the call recorded for Cc1cc(NC(=O)c2ccc(C)c(Nc3nccc(-c4cccnc4)n3)c2)cc(-n2cnc(C)c2)c1 was what?
Ans. N

Qu. Tell me the recorded outcome of this test for Cc1cc(F)ccc1-c1nc(NC(CO)CO)nc2c1ccc(=O)n2-c1c(F)cccc1F .
Ans. N

Qu. What classification did CC(C)(C)n1nc(-c2cccc3ccccc23)c2c(N)ncnc21 end up with in this test?
Ans. N

Qu. // param item: CCN(CC)CCOc1ccc(Nc2ncc3cc(-c4c(Cl)cccc4Cl)c(=O)n(C)c3n2)cc1 ; yields the recorded call
Ans. N

Qu. Status in this test for Cc1ccc(C(=O)Nc2ccc(CN3CCN(C)CC3)c(C(F)(F)F)c2)cc1C#Cc1cnc2[nH]ncc2c1 ?
Ans. N

Qu. Tell me the recorded outcome of this test for Nc1ncccc1-c1nc2ccc(-c3ccccc3)nc2n1-c1ccc(C2(N)CCC2)cc1 .
Ans. N

Qu. Check the results log: what was the call for COc1cc2ncnc(Nc3ccc(F)c(Cl)c3)c2cc1OCCCN1CCOCC1 ?
Ans. N

Qu. Query: recorded result category for CCN1/C(=C\C(C)=O)Sc2ccc(OC)cc21 in this test
Ans. N

Qu. Lab log entry: O=C1CCC(N2C(=O)c3ccccc3C2=O)C(=O)N1 (stereo not given) — outcome as called in the assay?
Ans. N

* * *

- SUBJECT_OF_TEST: cAMP-dependent protein kinase catalytic subunit alpha (Homo sapiens)
- TEST_DESCRIPTION: Protein Kinase A (PKA-HiBiT) SDR gain of signal screen
- ASSAY_SETUP: PKA-HiBiT structural dynamics response (SDR), luminescence gain of signal; series mostly up to 32.9 µM
Results filed as inconclusive are left out. Calls of active or inactive are those of the source. Calls follow the shape of the full dose curve.
Field 'call' accepts active, inactive

Qu. Answer briefly: the call reported for CCCS(=O)(=O)Nc1ccc(F)c(C(=O)c2c[nH]c3ncc(Cl)cc23)c1F in this assay.
Ans. inactive

Qu. What classification did O=S(=O)(/N=C/c1c(O)ccc2ccccc12)c1cccs1 end up with in this test?
Ans. inactive

Qu. Name the outcome recorded for CNc1ncc2cc(-c3cc(NC(=O)NCCC(C)(C)C)c(F)cc3C)c(C)nc2n1 in the assay.
Ans. inactive

Qu. Just curious, what result did COc1ccc(-n2c(SCC#N)nc3sc4c(c3c2=O)CCCC4)cc1 get here?
Ans. inactive

Qu. Per the assay record, what outcome was assigned to COc1cc(N2CCC(O)CC2)ccc1Nc1nc(Nc2ccccc2S(=O)(=O)C(C)C)c2[nH]cnc2n1 ?
Ans. inactive

Qu. What call does the record list for CN1CCN(CCCNc2ncc(Cl)c(-c3cc4c(C(=O)NC5CC5)cccc4s3)n2)CC1 ?
Ans. inactive

Qu. For this compound, state the assay outcome: Cc1[nH]nc2ncc(C(=O)N3CCC[C@H]3c3ccc(Cl)cc3)cc12
Ans. active

Qu. Query: recorded result category for CCN1CCN(Cc2ccc(NC(=O)c3ccc(C)c(NC(=O)c4cncc(-c5cccs5)c4)c3)cc2C(F)(F)F)CC1 in this test
Ans. inactive

Qu. Dear all, I need the recorded test outcome for Cc1cccc(C)c1-n1c(=O)c2cnc(Nc3ccc(N4CCN(C)CC4)cc3)nc2n2c3ccccc3nc12 , thank you.
Ans. inactive

* * *

- SUBJECT_OF_TEST: cAMP-dependent protein kinase catalytic subunit alpha (Homo sapiens) (UniProt P17612)
- TEST_DESCRIPTION: Protein Kinase A (PKA-HiBiT) SDR gain of signal screen
- ASSAY_SETUP: PKA-HiBiT structural dynamics response (SDR), luminescence gain of signal; series mostly up to 32.9 µM
Results filed as inconclusive are left out. Active and inactive are the calls of the source. Calls follow the shape of the full dose curve.
Give your call using only these classes: yes (1) = active, no (0) = inactive

Qu. Give the logged outcome of this assay for the following compound: COc1ccc(CNC(=O)Nc2ncc([N+](=O)[O-])s2)cc1
Ans. no (0)

Qu. State the result this test recorded for Nc1ncnc2c1c(-c1cnc3[nH]ccc3c1)nn2C1CCCC1 .
Ans. no (0)

Qu. # lookup: test call for NC(=O)c1cccc(-c2cc(Nc3ccc(OC(F)(F)F)cc3)ncn2)c1
Ans. no (0)

Qu. Please state the recorded outcome for this compound: Cc1cn(-c2cc(F)cc(NC(=O)c3ccc(C)c(Nc4nccc(-c5cccnc5)n4)c3)c2)cn1
Ans. no (0)

Qu. Write down the call the test reported for this compound. Item: COc1ccc(S(=O)(=O)N(C(C)=O)c2ccccc2/C=C/c2cc[n+]([O-])cc2)cc1
Ans. no (0)

Qu. Hi, do you know how COc1cc2c(N3CCN(C(=O)Nc4ccc(OC(C)C)cc4)CC3)ncnc2cc1OCCCN1CCCCC1 came out in this test?
Ans. no (0)

Qu. Hey, what did the test say about COc1cc(N2CCC(N3CCN(C)CC3)CC2)ccc1Nc1ncc(Cl)c(Nc2ccccc2P(C)(C)=O)n1 ?
Ans. yes (1)

Qu. Called result for C=CC(=O)Nc1cccc(Oc2nc(Nc3ccc(N4CCN(C)CC4)cc3OC)ncc2Cl)c1
Ans. no (0)

Qu. # fetch the recorded call for COc1cc2ncnc(-n3nc(-c4ccccn4)nc3N)c2cc1OC here
Ans. no (0)
